System: HeLa
Experiment: Growth inhibition of human HeLa cells by MTT assay
Type: functional, cell-based
result.type: IC50

{"compound": "c1ncc(-c2nc3cc(C4=NCCN4)ccc3[nH]2)[nH]1", "IC50": "> 100 µM"}
{"compound": "COc1cc([C@@H]2c3cc4c(cc3[C@@H](O[C@@H]3O[C@@H]5CO[C@@H](C)O[C@H]5[C@H](O)[C@H]3O)[C@H]3COC(=O)[C@H]23)OCO4)cc(OC)c1O [ETOPOSIDE]", "IC50": "2.9 µM"}

Query: IC50; subject: CC(C)NC(=N)c1ccc2[nH]c(-c3ccccn3)nc2c1
> 100 µM

Now try CC(C)NC(=N)c1ccc2[nH]c(-c3cnc[nH]3)nc2c1 .
> 100 µM

* * *

System: Human alphaherpesvirus 1
Assay: Antiviral activity against Herpesvirus 1 in HeLa cells by MTT assay
Assay type: functional, organism-based
Details: Human alphaherpesvirus 1, HeLa; in the assay text read “by optical evaluation of CPE” for “by MTT assay”
Readings of EC50 for the listed compounds
Please give a number only; it is taken to be in µM.

Worked examples, 2 compounds total:
{"smiles.notation": "Cn1cccc1-c1nc2cc(C(=N)N)ccc2[nH]1", "EC50 (µM)": 30}
{"smiles.notation": "Cn1cccc1-c1nc2cc(C3=NCCN3)ccc2[nH]1", "EC50 (µM)": 28.5}

The record that follows has no EC50 shown yet.
Query: EC50; subject: c1ccc(-c2nc3cc(C4=NCCN4)ccc3[nH]2)nc1
56.7

* * *

Tested on: HeLa
Assay: Growth inhibition of human HeLa cells by MTT assay
Type: functional, cell-based
result.type: IC50 (µM)

Worked examples, 2 compounds total:
{"smiles.notation": "Cn1cccc1-c1nc2cc(C3=NCCN3)ccc2[nH]1", "IC50 [µM]": 20}
{"smiles.notation": "Cn1cccc1-c1nc2cc(C(=N)N)ccc2[nH]1", "IC50 [µM]": 70}

(A) N=C(N)c1ccc2[nH]c(-c3ccccn3)nc2c1
(B) c1ccc(-c2nc3cc(C4=NCCN4)ccc3[nH]2)nc1
Sorting ascending by IC50, which comes first: A or B ? Use the label to indicate which entry you chose.
B

Each recorded value in this set is attributed to ChEMBL document CHEMBL1148692.
